// data source = PubChem BioAssay (NCI)

# Tested on: HS 578T breast
# experiment.description: NCI-60 one-dose screen, 48 h
# condition.info: 10 µM unless noted
About 83,000 compounds went through this panel and 20% of them were active in at least one assay; those are over-represented in the sample as a whole. The source made the active and inactive calls. The calls were made as follows: active = growth percent below 10; inactive = the rest.
Result category, one only: active, inactive

Here are 3 molecules together with their reported answers.
{"molecule": "COC(=O)Nc1nc2ccc(Sc3ccccc3)cc2[nH]1", "class.assignment": "inactive"}
{"molecule": "CC(C)(C)OC(=O)N1CC(Cn2cc(C(F)(F)F)c3c(Cl)ncnc32)C1", "class.assignment": "active"}
{"molecule": "CN1CCN(CC(=O)N(C)c2ccc(N=C(c3ccccc3)c3c(O)[nH]c4ccc(C#N)cc34)cc2)CC1", "class.assignment": "active"}

Now examine the next entry.
INPUT: Query: recorded result category for CC(C)CNCC(O)COc1ccc(C(C)(C)c2ccc(OCC(O)CNCC(C)C)cc2)cc1 (centres undefined) in this test
OUTPUT: inactive

###

# Test system: NCI-H522 lung
# experiment.description: NCI-60 one-dose screen, 48 h (100 = growth as untreated, 0 = no growth, -100 = all killed)
# condition.info: 10 µM unless noted
The panel holds about 83,000 compounds, 20% with a hit somewhere; the sample as a whole holds those more often.
Short version: growth at least 30% is Yes, less is No.

{"compound": "CCOC(=O)C1=C(N)Oc2cc(OC)ccc2C1c1ccc(F)c(F)c1 (stereo not drawn)", "class.assignment": "No"}
{"compound": "Nc1ncnc2c1c(-c1ccc(Oc3ccccc3)cc1)nn2C[C@H]1SSC[C@H]1O", "class.assignment": "No"}
{"compound": "C=C1C(=O)O[C@H]2[C@H]1CC/C(COC(=O)c1ccc3ccccc3c1)=C\\CC[C@@]1(C)O[C@@H]21", "class.assignment": "No"}
{"compound": "CC(C)(CCN=C(N)Nc1ccccn1)c1ccc(C(F)(F)F)cc1", "class.assignment": "No"}

INPUT: Item O=C(Nc1ccc(-n2ccc3c(NC(=O)c4ccccc4)ncnc32)cc1)Nc1ccc(Cl)c(C(F)(F)F)c1 with growth of 30% or above?
OUTPUT: No

INPUT: Identify whether the reported growth of the following compound is 30% or greater: CCCCC(=O)Nc1nc2ccc(SCCC)cc2s1
OUTPUT: No

INPUT: Check if growth >= 30% (inclusive). Item: c1coc(CSc2ncnc3nc[nH]c23)c1
OUTPUT: Yes

INPUT: Test whether the compound O=c1nc(N2CCOCC2)oc2c(-c3cccc4ccccc34)cccc12 records growth of 30% or higher.
OUTPUT: Yes

INPUT: # bool: growth of O=C(NNC(=O)c1ccc([N+](=O)[O-])cc1)c1ccc([N+](=O)[O-])cc1 >= 30%
OUTPUT: Yes

INPUT: # bool: growth of O=C(Nc1ccc(-n2ccc3c(NC(=O)c4ccccc4)ncnc32)cc1)Nc1ccc(Cl)c(Cl)c1 >= 30%
OUTPUT: No

###

# Tested on: SNB-75 CNS
# experiment.description: NCI-60 one-dose screen, 48 h (100 = growth as untreated, 0 = no growth, -100 = all killed)
# condition.info: 10 µM unless noted
The panel holds about 83,000 compounds, 20% with a hit somewhere; the sample as a whole holds those more often.
measurement.kind: growth (%)
Report as a plain number; the unit % is understood.

{"molecule": "CCCc1nn2c(CCC(=O)c3nc4ccc([N+](=O)[O-])cc4[nH]3)nnc2s1", "measurement.kind": "growth", "observed.measurement": 97.2}
{"molecule": "COC(=O)Nc1nc2ccc(Sc3ccccc3)cc2[nH]1", "measurement.kind": "growth", "observed.measurement": 21.7}
{"molecule": "NC(=NCCCOc1ccc(F)cc1)Nc1ccc(Cl)c(Cl)c1", "measurement.kind": "growth", "observed.measurement": 57.8}

INPUT: Value lookup for growth; key = CC(C)(c1ccc(OCC(O)CNCc2ccco2)cc1)c1ccc(OCC(O)CNCc2ccco2)cc1 (stereo not given)
OUTPUT: 80.1

INPUT: Form field: reported growth of COc1ccc(-c2coc3c(CO)c(O)ccc3c2=O)cc1
OUTPUT: 115

###

# System: OVCAR-4 ovarian
# experiment.description: NCI-60 one-dose screen, 48 h
# condition.info: 10 µM unless noted
# Experimental: Growth inhibition of the OVCAR-4 human tumor cell line is measured as a screen for anti-cancer activity. Cells are grown in 96 well plates and exposed to the test compound for 48 hours. Compounds are tested at a single concentration, which is 10^-5 M for most compounds. The reported endpoint is percent growth (GI% or GIPRCNT), where numbers from 0 - 100% represent growth inhibition, and numbers from -100% - 0 represent cell death. For example, a value of 40 represents 60% growth inhibition. […]
Compounds without any hit were thinned out: in the full panel of roughly 83,000, 20% have a hit. Active and inactive are the calls of the source. Rule for the calls: active = growth percent below 10; inactive = the rest.
Answer with one of the outcomes active, inactive

Worked examples follow.
{"molecule": "NC(=O)C1=C[C@H]2[C@H]3C=C[C@@]2(O)C(=O)O[C@@H]3O1", "class.assignment": "inactive"}
{"molecule": "CCNC(=O)Oc1ccc(/C(=C(/CC)Cc2ccccc2)c2ccc(OCCN3CCOCC3)cc2)cc1", "class.assignment": "inactive"}
{"molecule": "C=CCn1c(SCC(=O)Nc2ccc(C(=O)/C=C/c3cc(OC)c(OC)c(OC)c3)cc2)nnc1-c1ccc(OC)cc1", "class.assignment": "inactive"}
{"molecule": "ClC1c2ccccc2CCc2ccccc21", "class.assignment": "inactive"}
{"molecule": "Nc1nc2ccc(CNc3ccc(C(=O)NC(CC(=O)O)C(=O)O)cc3)cc2c(=O)[nH]1 (configuration not stated)", "class.assignment": "inactive"}

INPUT: Test call for this molecule, please: N#Cc1c(N)nc(Cl)c(C#N)c1C(=O)c1ccccc1
OUTPUT: inactive

INPUT: For CC(=O)CC/C=C(\C)[C@H](O)[C@H](C)C(=O)O[C@H]1C[C@H](C)C=C2C=C[C@@]3(C)O[C@@H](O)CC(=O)[C@]3(C)[C@H]21 , what call appears in the results of this test?
OUTPUT: active

###

Below, each entry is listed with its recorded growth.
# Tested on: MDA-MB-435 melanoma
# experiment.description: NCI-60 one-dose screen, 48 h (100 = growth as untreated, 0 = no growth, -100 = all killed)
# condition.info: 10 µM unless noted
Compounds without any hit were thinned out: in the full panel of roughly 83,000, 20% have a hit.
Give just the numeric value; % need not be written.

{"compound": "Nc1nc(-c2cc3c(cc2Cl)NC(=O)/C3=C/c2ccc(Cl)cc2)cs1", "growth, %": 1.64}
{"compound": "Nc1nccc2c1ccn2-c1ccc(NC(=O)c2ccc(N3CCOCC3)c(C(F)(F)F)c2)cc1", "growth, %": -8.07}
{"compound": "CC1(C)Cc2c(Br)c(Br)c(Br)c(OCC(O)CN3CCN(c4ccccn4)CC3)c2O1 (configuration not stated)", "growth, %": 66.8}

INPUT: // returns reported growth for input CCNc1cc(S(=O)(=O)O)ccc1C
OUTPUT: 107

INPUT: Report growth for N#Cc1c(N)nc(Cl)c(C#N)c1C(=O)c1ccccc1 please.
OUTPUT: 14.6

###

# Test system: UACC-257 melanoma
# experiment.description: NCI-60 one-dose screen, 48 h (100 = growth as untreated, 0 = no growth, -100 = all killed)
# condition.info: 10 µM unless noted
Compounds without any hit were thinned out: in the full panel of roughly 83,000, 20% have a hit. Calls of active or inactive are those of the source. Rule for the calls: active = growth percent below 10; inactive = the rest.
Recorded growth by entry

{"compound": "Cc1cn(-c2nc3c(c(NCc4ccccc4)n2)COCC3)c2cccc(C(N)=O)c12", "assayed.system": "UACC-257 melanoma", "observed.measurement": "68.1% [0.5 µM] (inactive)"}
{"compound": "CC(=O)c1cc2c(N)c(C(=O)Nc3cccc(Cl)c3)sc2nc1C", "assayed.system": "UACC-257 melanoma", "observed.measurement": "82.5% (inactive)"}
{"compound": "CC(=O)Nc1ccc(OC(=O)c2ccccc2O)cc1", "assayed.system": "UACC-257 melanoma", "observed.measurement": "111% (inactive)"}

INPUT: Would you mind telling me what growth value was observed for COc1ccc(-c2cnc(-c3ccc(F)cc3)[nH]2)cc1 ?
OUTPUT: -25.1% (active)

INPUT: Record request: growth value, item CS(=O)(=O)OCC(COS(C)(=O)=O)C(c1ccccc1)c1ccccc1
OUTPUT: 111% (inactive)

INPUT: // lookup growth for Fc1ccc(/C=N/n2c(-c3cc(Cl)cc(Cl)c3Cl)nn(CNc3ccc(Cl)nn3)c2=S)cc1
OUTPUT: 98.1% (inactive)

INPUT: // growth lookup, key: COc1cccc(-c2nc3sccn3c2-c2ccnc(NCCNC(=O)c3ccccc3)n2)c1
OUTPUT: 69.7% (inactive)

INPUT: For COc1ccc(-c2nn(-c3ccc(NC(=O)Nc4ccc(Cl)c(C(F)(F)F)c4)cc3)cc2-c2ccncc2)cc1Cl , what is its reported growth?
OUTPUT: -5.92% (active)

INPUT: Find the recorded growth belonging to COc1ccc2c(c1)OC(N(C(C)=O)C(C)=O)=C(C#N)C2c1ccc(F)cc1 (configuration not stated) and report it.
OUTPUT: 63% (inactive)
